Target: human TLR8 (Homo sapiens)
Sequence (Q9NR97 27-1041): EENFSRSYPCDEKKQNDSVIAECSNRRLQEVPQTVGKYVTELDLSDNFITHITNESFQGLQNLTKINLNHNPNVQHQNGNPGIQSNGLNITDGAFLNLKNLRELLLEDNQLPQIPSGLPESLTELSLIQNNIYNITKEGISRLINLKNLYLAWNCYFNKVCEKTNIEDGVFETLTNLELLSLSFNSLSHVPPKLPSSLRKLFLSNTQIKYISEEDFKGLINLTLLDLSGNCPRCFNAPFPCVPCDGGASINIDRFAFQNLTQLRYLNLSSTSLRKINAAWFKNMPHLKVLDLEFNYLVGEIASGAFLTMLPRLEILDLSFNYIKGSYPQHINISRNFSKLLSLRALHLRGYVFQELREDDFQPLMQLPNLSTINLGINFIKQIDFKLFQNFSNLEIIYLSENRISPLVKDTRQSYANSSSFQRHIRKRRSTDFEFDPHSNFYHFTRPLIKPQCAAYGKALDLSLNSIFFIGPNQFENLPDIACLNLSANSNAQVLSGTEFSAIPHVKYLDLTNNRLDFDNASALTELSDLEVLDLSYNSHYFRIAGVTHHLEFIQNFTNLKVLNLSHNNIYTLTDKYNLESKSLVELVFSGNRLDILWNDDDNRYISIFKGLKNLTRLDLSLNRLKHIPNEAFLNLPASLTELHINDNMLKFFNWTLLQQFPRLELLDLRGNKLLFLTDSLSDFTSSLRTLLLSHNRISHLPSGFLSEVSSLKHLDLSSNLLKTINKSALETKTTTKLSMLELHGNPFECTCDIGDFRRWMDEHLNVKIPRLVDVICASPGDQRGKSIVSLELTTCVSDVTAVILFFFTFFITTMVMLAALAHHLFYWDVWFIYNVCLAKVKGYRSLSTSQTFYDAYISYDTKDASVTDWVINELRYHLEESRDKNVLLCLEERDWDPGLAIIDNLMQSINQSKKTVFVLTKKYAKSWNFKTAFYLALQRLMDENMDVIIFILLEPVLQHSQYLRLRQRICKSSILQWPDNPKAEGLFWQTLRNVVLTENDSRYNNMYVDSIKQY
Assay protocol: HEK293-Blue-hTLR-8 cells assay (SEAP reporter, R848 stimulation)
Stated conditions: HEK293-Blue-hTLR8 cells, R848, 20 hrs; read-out: HEK/hTLR8 IC50
Let's look at some molecules and their measured IC50.
Measurement type: IC50

>  <Smiles representation>
CO[C@H]1CN(c2cc(C)nc(N3CCN(C[C@H]4CN(c5ccc(C#N)c6nccnc56)C[C@@H](C)O4)CC3)n2)C[C@@H]1N

>  <Target>
human TLR8 (Homo sapiens)

>  <Result>
1 nM

$$$$
>  <Smiles representation>
COc1cc(N2CCN(C[C@H]3CN(c4ccc(C#N)c5ncccc45)C[C@@H](C)O3)CC2)nc(N2CCNCC2)n1

>  <Target>
human TLR8 (Homo sapiens)

>  <Result>
8 nM

$$$$
>  <Smiles representation>
[2H]c1ccc2c(N3C[C@H](CN4CCN(c5ccc(N6C[C@H](N)[C@@H](F)C6)nc5)CC4)O[C@H](C)C3)ccc(C#N)c2n1

>  <Target>
human TLR8 (Homo sapiens)

>  <Result>
7 nM

$$$$
